This section presents compounds with their documented melting point values.

COc1cc([C@@H]2c3cc4c(cc3[C@@H](NC(=O)CN3CCCC3)[C@H]3COC(=O)[C@H]23)OCO4)cc(OC)c1O [Compound 12a] = 113 to 116 °C
COc1cc([C@@H]2c3cc4c(cc3[C@@H](NC(=O)CN3CCOCC3)[C@H]3COC(=O)[C@H]23)OCO4)cc(OC)c1OC [Compound 12e] = 119 to 121 °C
CCCNCC(=O)N[C@@H]1c2cc3c(cc2[C@@H](c2cc(OC)c(O)c(OC)c2)[C@H]2C(=O)OC[C@@H]21)OCO3 [Compound 12f] = 199 to 202 °C

*Q* For the compound COc1cc([C@@H]2c3cc4c(cc3[C@@H](NC(=O)CNCc3ccccc3)[C@H]3COC(=O)[C@H]23)OCO4)cc(OC)c1O [Compound 12n] , give its measured melting point value.
*A* 141 to 143 °C

*Q* For the compound CCCCNCC(=O)N[C@@H]1c2cc3c(cc2[C@@H](c2cc(OC)c(O)c(OC)c2)[C@H]2C(=O)OC[C@@H]21)OCO3 [Compound 12h] , give its measured melting point value.
*A* 115 to 118 °C

*Q* For the compound COc1cc([C@@H]2c3cc4c(cc3[C@@H](NC(=O)CN3CCCCC3)[C@H]3COC(=O)[C@H]23)OCO4)cc(OC)c1O [Compound 12b] , give its measured melting point value.
*A* 107 to 110 °C

###

Tested on: HeLA (human cervical carcinoma)
Assay text: MTT growth inhibition assay, HeLA
Assay type: cell-based
Test context: Homo sapiens, 48 h, read-out: IC50 (μM) HeLA, MTT, 48 h, n = 3
Measured quantity: IC50

CCN(CC)CC(=O)N[C@@H]1c2cc3c(cc2[C@@H](c2cc(OC)c(O)c(OC)c2)[C@H]2C(=O)OC[C@@H]21)OCO3 [Compound 12k] = 45.8 µM
COc1cc([C@@H]2c3cc4c(cc3[C@@H](NC(=O)CNCc3ccccc3)[C@H]3COC(=O)[C@H]23)OCO4)cc(OC)c1OC [Compound 12o] = 8.55 µM
CCCN(CCC)CC(=O)NC1c2cc3c(cc2C(c2cc(OC)c(O)c(OC)c2)C2C(=O)OCC12)OCO3 (stereo not shown) [Compound 12g] = 2.34 µM
COc1ccc(CCNCC(=O)N[C@@H]2c3cc4c(cc3[C@@H](c3cc(OC)c(OC)c(OC)c3)[C@H]3C(=O)OC[C@@H]32)OCO4)cc1OC [Compound 12r] = > 50 µM
COc1cc([C@@H]2c3cc4c(cc3[C@@H](NC(=O)CN(CCO)CCO)[C@H]3COC(=O)[C@H]23)OCO4)cc(OC)c1O [Compound 12l] = > 50 µM

*Q* For the compound COc1cc([C@@H]2c3cc4c(cc3[C@@H](NC(=O)CN3CCCCC3)[C@H]3COC(=O)[C@H]23)OCO4)cc(OC)c1O [Compound 12b] , give its measured IC50 value.
*A* 5.72 µM

*Q* For the compound COc1cc([C@@H]2c3cc4c(cc3[C@@H](NC(=O)CN3CCOCC3)[C@H]3COC(=O)[C@H]23)OCO4)cc(OC)c1OC [Compound 12e] , give its measured IC50 value.
*A* > 50 µM

*Q* For the compound COc1cc([C@@H]2c3cc4c(cc3[C@@H](NC(=O)CN3CCCCC3)[C@H]3COC(=O)[C@H]23)OCO4)cc(OC)c1OC [Compound 12c] , give its measured IC50 value.
*A* > 50 µM
